test system: MCF7; assay: Antiproliferation activity against human MCF-7 cells assessed as reduction in cell viability after 72 hrs by CCK8 assay; assay type: functional, cell-based; conditions: MCF7, 72 h
Assay Readout: IC50 (nM)
// note: answer is a bare numeric in nM

* Cc1nc(C)c(/C=C/C(=O)c2ccc(NC(=O)c3ccccc3F)cc2)nc1C | 1270
* COc1cccc(OC)c1C(=O)Nc1ccc(C(=O)/C=C/c2nc(C)c(C)nc2C)cc1 | 2470

Note to self: IC50 recorded for COc1cc2nccc(Oc3ccc(NC(=O)C4(C(=O)Nc5ccc(F)cc5)CC4)cc3)c2cc1OC [CABOZANTINIB] was 14300

Recorded result, Cc1nc(C)c(/C=C/C(=O)c2ccc(NC(=O)c3ccc(F)cc3F)cc2)nc1C , IC50: 1610

O=c1[nH]cc(F)c(=O)[nH]1 yielded IC50 of 5440

---

tested on: MDA-MB-231; assay: Antiproliferation activity against human MDA-MB-231 cells assessed as reduction in cell viability after 72 hrs by CCK8 assay; assay type: functional, cell-based; conditions: MDA-MB-231, 72 h
IC50 listing for selected compounds.
Only the number, expressed in µM, is required.

Field: example entries. Status: answers known.
* Cc1ccc(C(=O)Nc2ccc(C(=O)/C=C/c3nc(C)c(C)nc3C)cc2)cc1 | 1.78
* O=c1[nH]cc(F)c(=O)[nH]1 [FLUOROURACIL] | 5.85

IC50 of Cc1nc(C)c(/C=C/C(=O)c2ccc(NC(=O)c3ccc(F)cc3F)cc2)nc1C , assay on MDA-MB-231, is 1.77

Log: MDA-MB-231, compound COc1cc(OC)cc(C(=O)Nc2ccc(C(=O)/C=C/c3nc(C)c(C)nc3C)cc2)c1 , IC50 = 11.6
